B1: SNX8 (parent)
chain: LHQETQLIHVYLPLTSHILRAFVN

Variants of: B1
test method notes: protein stability index of a GFP-peptide fusion (GPS, HEK-293T) (PSI 1-6); higher = more stable;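 note: lentivirally expressed fusions sorted by FACS into six bins by GFP to DsRed ratio, PSI derived from sequencing read proportions per bin multiplied by bin number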
run parameters: c terminus: a fixed tail appended
measurement type: protein stability index
Keep the answer to the number alone.

Entry F22I — recorded protein stability index = 1.79

protein stability index recorded for this variant, L14Q , is 3.75

// sample F22Q , its protein stability index was 2.57

Memo: T5C , reported protein stability index: 3.39

The variant listed as L7I has a reported protein stability index of 2.73

The reported value for H17Y in terms of protein stability index is 2.6

// protein stability index value for R20P : 3

Record E4H . Reported protein stability index: 1.82

Value of protein stability index reported for the variant T15R is 2.25

variant H17S , protein stability index observed: 3.54

Where do the numbers come from? From the supplement of paper PMC10567573.
